Tested on: 991263-137-R1-J2-PDC complex spheroid viability;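 also: spheroids exposed to compounds for 7 days before readout; 100% = DMSO vehicle control viability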
PROTOCOL: Anticancer human tumor 991263-137-R1-J2-PDC patient-derived colon adenocarcinoma cell line growth inhibition [POLQ]
STATED CONDITIONS: second compound 0.1 µM; first compound 0.0316 µM; stronger effect = lower value
Field: viability, T/C. Provide a value for each of the compounds that follow.
Answer format: numeric, % implied, no suffix.

Request - read-out viability, T/C | tested on 991263-137-R1-J2-PDC complex spheroid viability | compound COc1cc(C2c3cc4c(cc3C(OC3OC5COC(C)OC5C(O)C3O)C3COC(=O)C23)OCO4)cc(OC)c1O (configuration not stated) + Cc1cccc(N(C)C(=O)C2C(O)CCN2c2nc(C)cc(C(F)(F)F)c2C#N)c1 95.2

Request - read-out viability, T/C | tested on 991263-137-R1-J2-PDC complex spheroid viability | compound Cn1ncnc1[C@H]1c2n[nH]c(=O)c3cc(F)cc(c23)N[C@@H]1c1ccc(F)cc1 + Nc1ccc(C#CCN(C(=O)Cc2ncc(C(F)(F)F)cc2C(F)(F)F)c2ccc(F)cc2)nn1 106

Request - read-out viability, T/C | tested on 991263-137-R1-J2-PDC complex spheroid viability | compound CC[C@@]1(O)C(=O)OCc2c1cc1n(c2=O)Cc2cc3c(CN(C)C)c(O)ccc3nc2-1 + COC1C(OC(N)=O)C(O)C(Oc2ccc3c(O)c(NC(=O)c4ccc(O)c(CC=C(C)C)c4)c(=O)oc3c2C)OC1(C)C 86.4

Request - read-out viability, T/C | tested on 991263-137-R1-J2-PDC complex spheroid viability | compound C#Cc1c(F)ccc2cc(O)cc(-c3ncc4c(N5CC6CCC(C5)N6)nc(OCC56CCCN5CC(F)C6)nc4c3F)c12 (configuration not stated) + Nc1ccc(C#CCN(C(=O)Cc2ncc(C(F)(F)F)cc2C(F)(F)F)c2ccc(F)cc2)nn1 103

Request - read-out viability, T/C | tested on 991263-137-R1-J2-PDC complex spheroid viability | compound CNCc1ccc(-c2[nH]c3cc(F)cc4c3c2CCNC4=O)cc1 + Cc1cccc(N(C)C(=O)C2C(O)CCN2c2nc(C)cc(C(F)(F)F)c2C#N)c1 110

Request - read-out viability, T/C | tested on 991263-137-R1-J2-PDC complex spheroid viability | compound COc1ccc([C@@H](O)c2cc(-c3ncnc4cc(N5CCOCC5)ccc34)c(F)cc2Cl)nn1 + Cc1cccc(N(C)C(=O)C2C(O)CCN2c2nc(C)cc(C(F)(F)F)c2C#N)c1 116

Request - read-out viability, T/C | tested on 991263-137-R1-J2-PDC complex spheroid viability | compound COc1ccc([C@@H](O)c2cc(-c3ncnc4cc(N5CCOCC5)ccc34)c(F)cc2Cl)nn1 + COC1C(OC(N)=O)C(O)C(Oc2ccc3c(O)c(NC(=O)c4ccc(O)c(CC=C(C)C)c4)c(=O)oc3c2C)OC1(C)C 99.8
